Experiment: soluble on expression in E. coli; label from the status in PepcDB or PDB records
observable: soluble on expression in E. coli

{"columns": ["monomerSequence", "soluble on expression in E. coli"],
 "data": [
  ["MASPLYLHSSDGPENLITNVQLKGENYEDWAKHVRNASRTKQKLGFIDGTLEKPTKEDDMEQ", "not soluble"],
  ["MGSDKIHHHHHHMNIIKSFNSTIDYLETVLDDEIDEKKVTRISGYSYSMFSRLFSILTEMTLSEYLRSRRLTEAAIILRDTDEKIIDVAFKFGYESSDSFGTAFKNFHGFTPSEVRIGKPFKLVSRVQLALSVRGGRSMNIRIQKKKAFTVAGVNQQNINSSICASLWQKLFSKVSHEEMLNLGTGEVVGVCHDILSLDNHDVLDSNTINYMAGYIVTDVDKARSMGLDILEIGETEYAVVELTGSVPECIHNGWKYAMEVFFPEHGYVHSGKPDFEYYYEGDMYSKDYKMELWIPVCKS", "not soluble"],
  ["RDLAVAILMDCSRSTEASVGERTVIDTAREALAALAAGIDVAGDRQAIWGFSSLRRDRVFLHLCKRFDEPMGPAVTARIGGLRPGHYTRLGAAIRHASARLNEEAASRKLLLVLTDGKPNDLDHYEGVHGIEDSRMAVREARALSQAVHGVVIDADGQDWFARIFGRAGFTLLPEPARLARALPDLYRSLTQEI", "not soluble"],
  ["MAHHHHHHMTEYEEKERKTSLAALRRFVKHCGPTRFTFITRIPLSRNTNQVNGTLLLENGDLTVCAQDMKANIADIREDIASFSVPQHQDFIRAFEEAKNMLKNELAALQEHKSILMVQYEMARP", "not soluble"],
  ["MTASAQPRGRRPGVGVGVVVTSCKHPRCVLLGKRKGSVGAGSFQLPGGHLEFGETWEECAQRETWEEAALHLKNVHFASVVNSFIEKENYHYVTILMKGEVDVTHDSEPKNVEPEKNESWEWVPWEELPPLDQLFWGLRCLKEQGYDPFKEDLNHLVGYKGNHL", "soluble"]
]}

IN: Report soluble on expression in E. coli for MIEADYLVIGAGIAGASTGYWLSAHGRVVVLEREAQPGYHSTGRSAAHYTVAYGTPQVRALTAASRAFFDNPPAGFCEHPLLSPRPEMVVDFSDDPEELRRQYESGKALVPQMRLLDAEQACSIVPVLRRDKVFGATYDPTGADIDTDALHQGYLRGIRRNQGQVLCNHEALEIRRVDGAWEVRCDAGSYRAAVLVNAAGAWCDAIAGLAGVRPLGLQPKRRSAFIFAPPPGIDCHDWPMLVSLDESFYLKPDAGMLLGSPANADPVEAHDVQPEQLDIATGMYLIEEATTLTIRRPEHTWAGLRSFVADGDLVAGYAANAEGFFWVAAQGGYGIQTSAAMGEASAALIRHQPLPAHLREHGLDEAMLSPRRLSPLEHHHHHH please.
OUT: not soluble

IN: Report soluble on expression in E. coli for MGSDKIHHHHHHMKIGVLSQFPELYSTRRLVEACESRGHEAWVINPINCYMNINSVKPSIHLEGEEVPMFDAIIPRIHASVTFYGCAVVRQFEMMGVFAANDSISIARSRDKLRALQLLSRKGIGMPVTGFANKPNNIPDLINMVGGAPLVIKLLEGTQGIGVVLAETRKAAESVIEAFLGLKANIMVQEYIKEANGSDIRCFVVGDKVVAAMRRQGPEGDFRSNLHLGGSAEPVKITPQERKSAVAAAKAMGLVVAGVDILRSARGPLVLEVNSAPGIEGIEQATGIKVAEPIVEYIEKVVAARRANHQVIA please.
OUT: not soluble

IN: Report soluble on expression in E. coli for MEGLKLSEAELMIFIHPSQSRNVFQGICRELSSLLFQYNETFDGVLLAYDATVKSKQAKILTGLHPYFGVRVNTRLLLFDPKPKSFVEGKIVKISPESIHVIVLGFSAAVITDVDIREEFKYRVRDGEGSFVSRSHKRHALKLGTMLRLQVQSFDEEVMHIAGSLLPENTGCVKWLEKKSEEALPTDRDHKRRKLA please.
OUT: not soluble

IN: Report soluble on expression in E. coli for MGSDKIHHHHHHMSVLYDTIGIDYANLRKPDLRIAAQIDAALGDAQSVLNVGAGAGSYEPAGRAVTALEPSAEMIAQRPEGTAPVVQGPAEDLPFADNSFDAAMAVLTIHHWSDKARGLAEMRRVARNRAVLLTYDPAFRGQWQTEYWPGLIGLDDGAMPPMAFFEEHLGPVDTQPVLVPHDCSDGFLYAYWRRPQAYLDPRIRKGSSGFWMIDGVEEGAQRLQADLASGAWAARHAALLERENADMGYRLVIADLV please.
OUT: not soluble

IN: Report soluble on expression in E. coli for VQLLEQSGAELVKPGASVKLSCTASGFNIEDSYIHWVKQRPEQGLEWIGRIDPEDGETKYAPKFQGKATITADTSSNTAYLHLRRLTSEDTAIYYCGRGAYYIKEDFWGQGTTLTVSSASTKGPSVFPLAPSSKAGGTAALGCLVKDYFPEPVTVSWNSGALTSGVHTFPAVLQSSGLYSLSSVVTVPSSSLGTQTYICNVNHKPSNTKVDKKVEPA please.
OUT: soluble

IN: Report soluble on expression in E. coli for MDIEERINLVLKKPTEEVLTVENLRHLFEIGAPLQHYIGFEISGYIHLGTGLMAGAKIADFQKAGIKTRVFLADWHSWINDKLGGDLEVIQEVALKYFKVGMEKSIEVMGGDPKKVEFVLASEILEKGDYWQTVIDISKNVTLSRVMRSITIMGRQMGEAIDFAKLIYPMMQVADIFYQGVTIAHAGMDQRKAHVIAIEVAQKLRYHPIVHEGEKLKPVAVHHHLLLGLQEPPKWPIESEEEFKEIKAQMKMSKSKPYSAVFIHDSPEEIRQKLRKAFCPAREVRYNPVLDWVEYIIFREEPTEFTVHRPAKFGGDVTYTTFEELKRDFAEGKLHPLDLKNAVAEYLINLLEPIRRYFEKHPEPLELMRSVKITR please.
OUT: soluble

IN: Report soluble on expression in E. coli for MIMAANEKEMRIKIIKDGPYRVTGGVPLLEQVIVTDDDGHTRDLIDIKEYPRREAYILCRCGSSENKPFCDGAHRKVGFDGSETASRTPYLEKAETFEGPDLKLTDVYELCDHSRFCQRSGGIRDLIQKSDDPEARQTAIEEAMICPSGRLVLWDKKTGKPFEKEFDPSIILVHDKQKGCEGPLWVRGGVPIESADGSMYEPRNRVTLCRCGKSENKPYCDGSHWMNSQQKLEFRKKWGLELEHHHHHH please.
OUT: not soluble
